Collected GI50 values appear next to each entry.
Test system: Ba/F3-TEL-PDGFRα(WT)
Test: Proliferation inhibitory activity on Ba/F3 cell (CellTiter-Glo, 72 hours), PDGFR-α
Type: cell-based
Conditions: Mus musculus, BaF3, read-out: Ba/F3 (nM) Tel-PDGFRα (GI50 class)

MOLECULE	STUDY_TARGET	GI50
CCN(CC)CCOc1cc2ncnc(-c3ccc(NC(=O)Cc4ccc(C(F)(F)F)cc4)cc3)c2cc1OC	Ba/F3-TEL-PDGFRα(WT)	≤ 200 nM
CCN(CC)CCOc1cc2c(-c3ccc(NC(=O)Cc4ccc(F)cc4)cc3)ncnc2cc1OC	Ba/F3-TEL-PDGFRα(WT)	≤ 200 nM
CCN(CC)CCCOc1cc2ncnc(-c3ccc(NC(=O)Cc4ccc(C(F)(F)F)cc4)cc3)c2cc1OC	Ba/F3-TEL-PDGFRα(WT)	≤ 200 nM
COCCOc1cc2ncnc(-c3ccc(NC(=O)C(C)(N)c4ccc(F)cc4)cc3)c2cc1OCCOC (stereo not shown)	Ba/F3-TEL-PDGFRα(WT)	≤ 200 nM
